- Protocol Notes: Dynamic light scattering (DLS) of drug‐conjugates in water
- Format: physicochemical
- Condition Info: DLS in water, at the concentration given per compound (Figures S2–S5)

Molecule: COCCOCCOCCOP(=O)(OCCOCCOCCOC)N1CCC(c2cc(OC(C)C)c(Nc3ncc(Cl)c(Nc4ccccc4S(=O)(=O)C(C)C)n3)cc2C)CC1 [Cer‐OEG3]
PDI: 0.05
//
Molecule: COCCOCCOCCOCCOCCOCCOCCOCCOP(=O)(OCCOCCOCCOCCOCCOCCOCCOCCOC)N1CCN(c2ccc(Nc3ncc4c(C)c(C(C)=O)c(=O)n(C5CCCC5)c4n3)nc2)CC1 [Pal‐OEG8]
PDI: 0.33
//
Molecule: COCCOCCOCCOCCOCCOCCOCCOCCOP(=O)(OCCOCCOCCOCCOCCOCCOCCOCCOC)N1CCN(c2ccc(Nc3ncc4cc(C(=O)N(C)C)n(C5CCCC5)c4n3)nc2)CC1 [Rib‐OEG8]
PDI: 0.22
//
Molecule: COCCOCCOCCOCCOCCOCCOCCOCCOP(=O)(OCCOCCOCCOCCOCCOCCOCCOCCOC)N1CCC(c2cc(OC(C)C)c(Nc3ncc(Cl)c(Nc4ccccc4S(=O)(=O)C(C)C)n3)cc2C)CC1 [Cer‐OEG8]
PDI: 0.25
//
Molecule: COCCOCCOCCOCCOCCOCCOCCOCCOP(=O)(OCCOCCOCCOCCOCCOCCOCCOCCOC)N1CCC(n2cc(-c3cnc(N)c(O[C@H](C)c4c(Cl)ccc(F)c4Cl)c3)cn2)CC1 [Cri‐OEG8]
PDI: 0.36

----------
- Protocol Notes: Dynamic light scattering (DLS) of drug‐conjugates in water
- Format: physicochemical
- Condition Info: DLS in water, at the concentration given per compound (Figures S2–S5)
Kind request: treat 0.2 as inclusive, so PDI at 0.2 or higher is condition met, anything lower is condition not met.

Structure As Smiles: COCCOCCOP(=O)(OCCOCCOC)N1CCC(n2cc(-c3cnc(N)c(O[C@H](C)c4c(Cl)ccc(F)c4Cl)c3)cn2)CC1
Class Assignment: condition not met
--
Structure As Smiles: COCCOCCOCCOP(=O)(OCCOCCOCCOC)N1CCC(n2cc(-c3cnc(N)c(O[C@H](C)c4c(Cl)ccc(F)c4Cl)c3)cn2)CC1
Class Assignment: condition not met
--
Structure As Smiles: COCCOCCOP(=O)(OCCOCCOC)N1CCN(c2ccc(Nc3ncc4c(C)c(C(C)=O)c(=O)n(C5CCCC5)c4n3)nc2)CC1
Class Assignment: condition not met
--
Structure As Smiles: COCCOCCOCCOCCOP(=O)(OCCOCCOCCOCCOC)N1CCN(c2ccc(Nc3ncc4cc(C(=O)N(C)C)n(C5CCCC5)c4n3)nc2)CC1
Class Assignment: condition met
--
Structure As Smiles: COCCOCCOCCOP(=O)(OCCOCCOCCOC)N1CCN(c2ccc(Nc3ncc4cc(C(=O)N(C)C)n(C5CCCC5)c4n3)nc2)CC1
Class Assignment: condition not met
--
Structure As Smiles: COCCOCCOCCOP(=O)(OCCOCCOCCOC)N1CCN(c2ccc(Nc3ncc4c(C)c(C(C)=O)c(=O)n(C5CCCC5)c4n3)nc2)CC1
Class Assignment: condition met
--
Structure As Smiles: COCCOCCOP(=O)(OCCOCCOC)N1CCC(c2cc(OC(C)C)c(Nc3ncc(Cl)c(Nc4ccccc4S(=O)(=O)C(C)C)n3)cc2C)CC1
Class Assignment: condition met
--
Structure As Smiles: COCCOCCOP(=O)(OCCOCCOC)N1CCN(c2ccc(Nc3ncc4cc(C(=O)N(C)C)n(C5CCCC5)c4n3)nc2)CC1
Class Assignment: condition met

----------
- Protocol Notes: Solubility limit in water (kinetic solubility) by UV/Vis optical density at 600 nm
- Format: physicochemical
- Condition Info: kinetic from dmso stock, absorption at 600 nm, read-out: c sol (water), solubility limit in water
Quantity Measured: solubility

Structure As Smiles: COCCOCCOCCOCCOCCOCCOCCOCCOP(=O)(OCCOCCOCCOCCOCCOCCOCCOCCOC)N1CCN(c2ccc(Nc3ncc4c(C)c(C(C)=O)c(=O)n(C5CCCC5)c4n3)nc2)CC1
Reported Result: ≤ 3.16 mM
//
Structure As Smiles: COCCOCCOCCOP(=O)(OCCOCCOCCOC)N1CCN(c2ccc(Nc3ncc4c(C)c(C(C)=O)c(=O)n(C5CCCC5)c4n3)nc2)CC1
Reported Result: 8.71 mM
//
Structure As Smiles: COCCOCCOCCOCCOCCOCCOCCOCCOP(=O)(OCCOCCOCCOCCOCCOCCOCCOCCOC)N1CCC(c2cc(OC(C)C)c(Nc3ncc(Cl)c(Nc4ccccc4S(=O)(=O)C(C)C)n3)cc2C)CC1
Reported Result: 1.75 mM
//
Structure As Smiles: COCCOCCOP(=O)(OCCOCCOC)N1CCN(c2ccc(Nc3ncc4cc(C(=O)N(C)C)n(C5CCCC5)c4n3)nc2)CC1
Reported Result: 12.3 mM

----------
Overview of recorded solubility for various compounds
- Protocol Notes: Solubility limit in water (kinetic solubility) by UV/Vis optical density at 600 nm
- Type: physicochemical
- Condition Info: kinetic from dmso stock, absorption at 600 nm, read-out: c sol (water), solubility limit in water
Quantity Measured: solubility (mM)

Compound: COCCOCCOCCOCCOP(=O)(OCCOCCOCCOCCOC)N1CCN(c2ccc(Nc3ncc4cc(C(=O)N(C)C)n(C5CCCC5)c4n3)nc2)CC1
Quantity Measured: solubility
Comparison Symbol: =
Reported Result: 9.33
--
Compound: COCCOCCOCCOP(=O)(OCCOCCOCCOC)N1CCN(c2ccc(Nc3ncc4cc(C(=O)N(C)C)n(C5CCCC5)c4n3)nc2)CC1
Quantity Measured: solubility
Comparison Symbol: =
Reported Result: 13.5
--
Compound: COCCOCCOCCOCCOCCOCCOCCOCCOP(=O)(OCCOCCOCCOCCOCCOCCOCCOCCOC)N1CCC(n2cc(-c3cnc(N)c(O[C@H](C)c4c(Cl)ccc(F)c4Cl)c3)cn2)CC1
Quantity Measured: solubility
Comparison Symbol: ≤
Reported Result: 4.62
--
Compound: COCCOCCOCCOCCOCCOCCOCCOCCOP(=O)(OCCOCCOCCOCCOCCOCCOCCOCCOC)N1CCN(c2ccc(Nc3ncc4cc(C(=O)N(C)C)n(C5CCCC5)c4n3)nc2)CC1
Quantity Measured: solubility
Comparison Symbol: =
Reported Result: 1.52
--
Compound: CN(C)C(=O)c1cc2cnc(Nc3ccc(N4CCNCC4)cn3)nc2n1C1CCCC1 [Ribociclib, reference compound]
Quantity Measured: solubility
Comparison Symbol: =
Reported Result: 0.49
--
Compound: COCCOCCOCCOP(=O)(OCCOCCOCCOC)N1CCC(n2cc(-c3cnc(N)c(O[C@H](C)c4c(Cl)ccc(F)c4Cl)c3)cn2)CC1
Quantity Measured: solubility
Comparison Symbol: =
Reported Result: 19.1

----------
- Protocol Notes: pH dependent hydrolysis / drug release by HPLC
- Type: physicochemical
- Condition Info: acetate buffer, pH 3, 37 °C
Quantity Measured: half-life (h)

Structure As Smiles: COCCOCCOCCOCCOCCOCCOCCOCCOP(=O)(OCCOCCOCCOCCOCCOCCOCCOCCOC)N1CCC(c2cc(OC(C)C)c(Nc3ncc(Cl)c(Nc4ccccc4S(=O)(=O)C(C)C)n3)cc2C)CC1
Quantity Measured: half-life
Display Unit: h
Reported Result: 50

----------
Overview of recorded pIC50 for various molecules
- Assay System: UniProt P08922
- Sequence (P08922 28-2347): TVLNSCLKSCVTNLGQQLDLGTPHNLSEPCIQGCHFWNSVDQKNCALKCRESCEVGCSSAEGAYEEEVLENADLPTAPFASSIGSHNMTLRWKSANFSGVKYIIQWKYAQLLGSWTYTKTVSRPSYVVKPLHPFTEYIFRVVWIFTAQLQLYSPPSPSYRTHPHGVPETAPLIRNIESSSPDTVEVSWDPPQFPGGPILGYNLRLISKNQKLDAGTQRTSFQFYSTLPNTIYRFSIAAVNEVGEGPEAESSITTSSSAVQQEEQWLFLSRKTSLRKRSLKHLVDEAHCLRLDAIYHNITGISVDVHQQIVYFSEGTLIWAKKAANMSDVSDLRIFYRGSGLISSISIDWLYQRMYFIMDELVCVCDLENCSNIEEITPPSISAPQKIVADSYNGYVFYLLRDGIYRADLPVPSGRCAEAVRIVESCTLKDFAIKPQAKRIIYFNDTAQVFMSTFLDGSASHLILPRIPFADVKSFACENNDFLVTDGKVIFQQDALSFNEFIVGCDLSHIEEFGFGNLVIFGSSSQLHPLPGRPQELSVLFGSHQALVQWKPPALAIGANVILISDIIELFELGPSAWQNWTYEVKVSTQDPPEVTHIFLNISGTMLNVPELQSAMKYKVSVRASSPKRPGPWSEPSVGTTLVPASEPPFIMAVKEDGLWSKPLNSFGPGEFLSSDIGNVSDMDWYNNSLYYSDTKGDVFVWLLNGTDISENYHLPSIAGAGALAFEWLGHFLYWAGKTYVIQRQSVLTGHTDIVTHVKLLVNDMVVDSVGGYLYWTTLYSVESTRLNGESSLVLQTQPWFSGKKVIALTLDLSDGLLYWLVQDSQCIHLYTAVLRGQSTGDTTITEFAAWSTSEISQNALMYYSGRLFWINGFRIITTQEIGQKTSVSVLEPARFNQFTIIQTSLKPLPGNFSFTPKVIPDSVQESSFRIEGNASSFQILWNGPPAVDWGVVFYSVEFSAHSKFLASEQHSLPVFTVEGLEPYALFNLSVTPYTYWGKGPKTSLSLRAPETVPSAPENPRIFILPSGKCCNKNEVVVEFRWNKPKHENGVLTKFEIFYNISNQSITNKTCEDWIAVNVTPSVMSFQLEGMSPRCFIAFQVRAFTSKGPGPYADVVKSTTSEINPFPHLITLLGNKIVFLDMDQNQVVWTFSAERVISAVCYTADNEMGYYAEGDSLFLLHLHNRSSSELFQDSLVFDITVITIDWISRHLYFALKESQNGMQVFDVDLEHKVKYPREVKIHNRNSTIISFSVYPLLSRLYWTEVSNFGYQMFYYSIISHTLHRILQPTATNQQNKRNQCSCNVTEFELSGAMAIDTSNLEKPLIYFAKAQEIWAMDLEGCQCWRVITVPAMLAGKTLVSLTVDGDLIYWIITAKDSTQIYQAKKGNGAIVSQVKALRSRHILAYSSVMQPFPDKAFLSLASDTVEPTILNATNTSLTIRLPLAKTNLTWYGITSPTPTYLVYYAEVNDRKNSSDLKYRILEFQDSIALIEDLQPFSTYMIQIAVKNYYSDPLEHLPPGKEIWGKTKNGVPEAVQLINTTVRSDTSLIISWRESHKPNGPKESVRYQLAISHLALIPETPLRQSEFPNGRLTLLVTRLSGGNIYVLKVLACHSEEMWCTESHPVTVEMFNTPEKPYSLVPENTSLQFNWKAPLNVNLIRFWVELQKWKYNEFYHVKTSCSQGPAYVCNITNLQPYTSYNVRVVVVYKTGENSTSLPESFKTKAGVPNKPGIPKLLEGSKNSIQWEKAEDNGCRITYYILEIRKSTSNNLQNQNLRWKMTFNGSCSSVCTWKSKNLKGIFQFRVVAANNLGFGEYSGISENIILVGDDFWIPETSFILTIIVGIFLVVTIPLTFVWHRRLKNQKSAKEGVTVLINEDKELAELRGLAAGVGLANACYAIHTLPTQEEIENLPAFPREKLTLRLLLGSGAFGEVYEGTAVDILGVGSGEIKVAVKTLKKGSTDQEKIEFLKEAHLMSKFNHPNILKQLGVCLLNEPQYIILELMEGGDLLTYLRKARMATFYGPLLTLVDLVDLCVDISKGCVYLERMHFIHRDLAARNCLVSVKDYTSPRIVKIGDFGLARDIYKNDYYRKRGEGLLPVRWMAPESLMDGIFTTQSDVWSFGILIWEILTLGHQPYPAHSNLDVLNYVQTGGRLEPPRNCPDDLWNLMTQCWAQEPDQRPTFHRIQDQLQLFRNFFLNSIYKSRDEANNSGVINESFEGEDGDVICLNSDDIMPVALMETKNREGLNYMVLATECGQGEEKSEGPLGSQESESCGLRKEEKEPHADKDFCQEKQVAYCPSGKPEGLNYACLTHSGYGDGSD
pIC50: −log10 of the molar value.
Quantity Measured: pIC50

Structure As Smiles: COCCOCCOP(=O)(OCCOCCOC)N1CCC(c2cc(OC(C)C)c(Nc3ncc(Cl)c(Nc4ccccc4S(=O)(=O)C(C)C)n3)cc2C)CC1
Quantity Measured: pIC50
Reported Result: 7.00
//
Structure As Smiles: COCCOCCOCCOCCOCCOCCOCCOCCOP(=O)(OCCOCCOCCOCCOCCOCCOCCOCCOC)N1CCC(c2cc(OC(C)C)c(Nc3ncc(Cl)c(Nc4ccccc4S(=O)(=O)C(C)C)n3)cc2C)CC1
Quantity Measured: pIC50
Reported Result: 7.00
//
Structure As Smiles: COCCOCCOP(=O)(OCCOCCOC)N1CCC(n2cc(-c3cnc(N)c(O[C@H](C)c4c(Cl)ccc(F)c4Cl)c3)cn2)CC1
Quantity Measured: pIC50
Reported Result: 7.30
//
Structure As Smiles: COCCOCCOCCOP(=O)(OCCOCCOCCOC)N1CCC(c2cc(OC(C)C)c(Nc3ncc(Cl)c(Nc4ccccc4S(=O)(=O)C(C)C)n3)cc2C)CC1
Quantity Measured: pIC50
Reported Result: 7.35
//
Structure As Smiles: COCCOCCOCCOCCOCCOCCOCCOCCOP(=O)(OCCOCCOCCOCCOCCOCCOCCOCCOC)N1CCC(n2cc(-c3cnc(N)c(O[C@H](C)c4c(Cl)ccc(F)c4Cl)c3)cn2)CC1
Quantity Measured: pIC50
Reported Result: 6.85
//
Structure As Smiles: COCCOCCOCCOP(=O)(OCCOCCOCCOC)N1CCC(n2cc(-c3cnc(N)c(O[C@H](C)c4c(Cl)ccc(F)c4Cl)c3)cn2)CC1
Quantity Measured: pIC50
Reported Result: 7.35
